- experimentalTarget: T1, HMGB1 (UniProt P09429 1-215, limits assumed)
- T1 construct: also called biotinylated HMGB1
- T1 sequence (looked up): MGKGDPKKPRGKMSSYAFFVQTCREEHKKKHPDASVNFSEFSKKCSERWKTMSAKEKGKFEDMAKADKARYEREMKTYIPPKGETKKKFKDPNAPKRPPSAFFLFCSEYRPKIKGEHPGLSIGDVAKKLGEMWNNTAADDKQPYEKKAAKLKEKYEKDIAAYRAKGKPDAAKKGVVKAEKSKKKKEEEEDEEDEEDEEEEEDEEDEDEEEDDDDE
- assayText: Octet BLI
parameter: Kd (nM)

binder="R2B5 anti-HMGB1 (designed binder, 14FN3 variant; on phage in phage ELISA, soluble 6xHis-tagged in Octet) NVSPPRRARVTDATETTITIRWTVAESKIARFQVDAVPANGQTPIQRTIKRSKHSYTITGLQPGTDYKIYLYTLNDNARSSPVVIDAST" measvalue=65.8
binder="P2C6 anti-HMGB1 (designed binder, 14FN3 variant; on phage in phage ELISA, soluble 6xHis-tagged in Octet) NVSPPRRARVTDATETTITIRWGVAPSQVIRFQVDAVPANGQTPIQRTIKRSVHAYTITGLQPGTDYKIYLYTLNDNARSSPVVIDAST" measvalue=104
binder="R2G2 anti-HMGB1 (designed binder, 14FN3 variant; on phage in phage ELISA, soluble 6xHis-tagged in Octet) NVSPPRRARVTDATETTITISWRAAESAIARFQVDAVPANGQTPIQRTIKRTKHTYTITGLQPGTDYKIYLYTLNDNARSSPVVIDAST" measvalue=266
